system: Key Broadleaf Weed and Crop Species; experiment: Post-emergent Test II herbicidal activity (Table 15); type: in vivo; settings: Brassica napus, post-emergence, 336 h, oilseed rape, canola (Brassica napus), 70 g ai/ha, 14 d, read-out: Visual Growth Reduction (%) 14 Days After Application, BRSNN
measured.parameter: pest or weed control at 70 g/ha

Input line: Item COC(=O)c1nc(-c2ccc3cc[nH]c3c2)c(C)c(N)c1Cl [Compound 1.28] has what recorded pest or weed control at 70 g/ha?
Output line: 85 to 94%

Input line: // lookup pest or weed control at 70 g/ha for COC(=O)c1nc(-c2cc3sccc3cc2F)cc(N)c1Cl [Compound 3.17]
Output line: 0 to 29%

---

test system: Key Broadleaf Weed and Crop Species; assay: Post-emergent Test II herbicidal activity (Table 15); type: in vivo; details: Abutilon theophrasti, post-emergence, 336 h, velvetleaf (Abutilon theophrasti), 70 g ai/ha, 14 d, read-out: Visual Growth Reduction (%) 14 Days After Application, ABUTH
measured.parameter: pest or weed control at 70 g/ha

Sample answers from the record:
INSERT INTO assay_data (smiles_code, measured_parameter, result) VALUES
  ('COc1c(N)nc(-c2ccc3cc[nH]c3c2)nc1C(=O)O', 'pest or weed control at 70 g/ha', '0 to 29%'),
  ('Nc1c(Cl)c(C(=O)O)nc(-c2ccc3ccsc3c2)c1Cl', 'pest or weed control at 70 g/ha', '0 to 29%'),
  ('COc1c(N)nc(-c2ccc3cc[nH]c3c2F)nc1C(=O)O', 'pest or weed control at 70 g/ha', '0 to 29%');

Input line: Item: COC(=O)c1nc(-c2cccc3sccc23)c(F)c(N)c1Cl Test system: Key Broadleaf Weed and Crop Species Read-out: pest or weed control at 70 g/ha Value: ?
Output line: 0 to 29%

Input line: GET /values?readout=pest or weed control at 70 g/ha&system=Key Broadleaf Weed and Crop Species&item= COC(=O)c1nc(-c2ccc3ccn(C)c3c2)c(F)c(N)c1Cl
Output line: 0 to 29%

Input line: Could you share what pest or weed control at 70 g/ha was measured for COC(=O)c1nc(-c2cc3occc3cc2F)cc(N)c1Cl , tested on Key Broadleaf Weed and Crop Species?
Output line: 95 to 100%

---

Below: a set of entries, each annotated with reported melting point.

Guide cases for melting point, answers given:
INSERT INTO assay_data (smiles_code, measured_parameter, result) VALUES
  ('COC(=O)c1nc(-c2cccc3c(Br)csc23)c(F)c(N)c1Cl', 'melting point', '181 to 184 °C'),
  ('Nc1c(F)c(-c2ccc3occc3c2)nc(C(=O)O)c1Cl', 'melting point', '165 to 167 °C'),
  ('COC(=O)c1nc(-c2ccc3cc[nH]c3c2F)nc(N)c1Cl', 'melting point', '185 to 190 °C'),
  ('COC(=O)c1nc(-c2ccc(Cl)c3ccoc23)c(F)c(N)c1Cl', 'melting point', '167 °C'),
  ('Cn1ccc2ccc(-c3nc(C(=O)O)c(Cl)c(N)c3F)cc21', 'melting point', '173 to 176 °C');

Kindly review the next compound as well.
Input line: Any idea what melting point was measured for COC(=O)c1nc(-c2ccc3ccsc3c2)nc(N)c1OC ?
Output line: 143 to 145 °C

---

Parameter pest or weed control at 140 g/ha: see the listing below.
system: Key Broadleaf Weed and Crop Species; assay: Post-emergent Test II herbicidal activity (Table 15); assay type: in vivo; details: Brassica napus, post-emergence, 336 h, oilseed rape, canola (Brassica napus), 140 g ai/ha, 14 d, read-out: Visual Growth Reduction (%) 14 Days After Application, BRSNN

See these solved cases before continuing.
INSERT INTO measurements (smiles_code, assayed_target, measured_parameter, result) VALUES
  ('Nc1c(Cl)c(C(=O)O)nc(-c2ccc3ccsc3c2)c1Cl', 'Key Broadleaf Weed and Crop Species', 'pest or weed control at 140 g/ha', '0 to 29%'),
  ('COC(=O)c1nc(-c2ccc3cnn(C)c3c2)c(F)c(N)c1Cl', 'Key Broadleaf Weed and Crop Species', 'pest or weed control at 140 g/ha', '45 to 59%'),
  ('Nc1c(F)c(-c2ccc3scnc3c2)nc(C(=O)O)c1Cl', 'Key Broadleaf Weed and Crop Species', 'pest or weed control at 140 g/ha', '95 to 100%'),
  ('COC(=O)c1nc(-c2ccc3cc[nH]c3c2)c(Cl)c(N)c1Cl', 'Key Broadleaf Weed and Crop Species', 'pest or weed control at 140 g/ha', '60 to 74%'),
  ('COC(=O)c1nc(-c2ccc3sccc3c2)nc(N)c1OC', 'Key Broadleaf Weed and Crop Species', 'pest or weed control at 140 g/ha', '30 to 44%'),
  ('Nc1c(Cl)c(C(=O)O)nc(-c2ccc3cc[nH]c3c2)c1Cl', 'Key Broadleaf Weed and Crop Species', 'pest or weed control at 140 g/ha', '85 to 94%'),
  ('COC(=O)c1nc(-c2ccc3ccsc3c2)c(C)c(N)c1Cl', 'Key Broadleaf Weed and Crop Species', 'pest or weed control at 140 g/ha', '0 to 29%'),
  ('COC(=O)c1nc(-c2ccc3cn[nH]c3c2)c(F)c(N)c1Cl', 'Key Broadleaf Weed and Crop Species', 'pest or weed control at 140 g/ha', '45 to 59%'),
  ('Nc1c(F)c(-c2ccc3[nH]ccc3c2)nc(C(=O)O)c1Cl', 'Key Broadleaf Weed and Crop Species', 'pest or weed control at 140 g/ha', '45 to 59%'),
  ('COC(=O)c1nc(-c2ccc3cc[nH]c3c2)nc(N)c1Cl', 'Key Broadleaf Weed and Crop Species', 'pest or weed control at 140 g/ha', '60 to 74%');

Input line: Any idea what pest or weed control at 140 g/ha was measured for COC(=O)c1nc(-c2cccc3occc23)c(F)c(N)c1Cl ?
Output line: 85 to 94%

---

system: Key Broadleaf Weed and Crop Species; experiment: Post-emergent Test II herbicidal activity (Table 15); assay type: in vivo; details: Brassica napus, post-emergence, 336 h, oilseed rape, canola (Brassica napus), 70 g ai/ha, 14 d, read-out: Visual Growth Reduction (%) 14 Days After Application, BRSNN
Reported pest or weed control at 70 g/ha values for the following compounds.

INSERT INTO results (compound, result) VALUES
  ('COC(=O)c1nc(-c2ccc3cc[nH]c3c2F)nc(N)c1OC [Compound 1.34]', '85 to 94%'),
  ('COc1c(N)nc(-c2cc3[nH]ccc3cc2F)nc1C(=O)O [Compound 1.37]', '60 to 74%'),
  ('COC(=O)c1nc(-c2cc3occc3cc2F)cc(N)c1Cl [Compound 2.12]', '85 to 94%'),
  ('COC(=O)c1nc(-c2ccc(Cl)c3ccoc23)cc(N)c1Cl [Compound 2.25]', '45 to 59%'),
  ('Nc1c(Cl)c(C(=O)O)nc(-c2ccc3cc[nH]c3c2)c1Cl [Compound 1.06]', '85 to 94%');

Input line: What measured pest or weed control at 70 g/ha goes with COc1c(N)nc(-c2ccc3cc[nH]c3c2F)nc1C(=O)O [Compound 1.35] ?
Output line: 95 to 100%

Input line: So what's the measured pest or weed control at 70 g/ha for this one? COC(=O)c1nc(-c2ccc3[nH]ncc3c2)c(F)c(N)c1Cl [Compound 4.01]
Output line: 0 to 29%

Input line: Entry COC(=O)c1nc(-c2ccc3c(cnn3C)c2)c(F)c(N)c1Cl [Compound 4.03] has what pest or weed control at 70 g/ha?
Output line: 0 to 29%

Input line: Item under review: Nc1c(F)c(-c2ccc3[nH]ccc3c2)nc(C(=O)O)c1Cl [Compound 1.04] . Reported pest or weed control at 70 g/ha?
Output line: 45 to 59%

---

The entries below are paired with their reported melting point.

Worked examples follow.
INSERT INTO assay_data (smiles_code, measured_parameter, result) VALUES
  ('COC(=O)c1nc(-c2ccc3scnc3c2)c(F)c(N)c1Cl', 'melting point', '216 °C'),
  ('C=Cc1c(N)nc(-c2ccc3cc[nH]c3c2F)nc1C(=O)O', 'melting point', '209 to 211 °C'),
  ('COC(=O)c1nc(-c2cccc3c2cnn3C)c(F)c(N)c1Cl', 'melting point', '170 to 175 °C');

Now examine the next entry.
Input line: Could you share which melting point value was measured for COc1c(C(=O)O)nc(-c2ccc3cc[nH]c3c2F)c(F)c1N ?
Output line: 133 to 140 °C

---

system: Key Broadleaf Weed and Crop Species; experiment: Post-emergent Test II herbicidal activity (Table 15); assay type: in vivo; settings: Brassica napus, post-emergence, 336 h, oilseed rape, canola (Brassica napus), 70 g ai/ha, 14 d, read-out: Visual Growth Reduction (%) 14 Days After Application, BRSNN
pest or weed control at 70 g/ha values by entry

Study these solved cases before continuing.
INSERT INTO measurements (compound, assayed_target, result) VALUES
  ('Nc1c(F)c(-c2ccc3ccsc3c2)nc(C(=O)O)c1Cl [Compound 3.13]', 'Key Broadleaf Weed and Crop Species', '0 to 29%'),
  ('COC(=O)c1nc(-c2ccc(Cl)c3occc23)nc(N)c1Cl [Compound 2.20]', 'Key Broadleaf Weed and Crop Species', '0 to 29%');

Input line: // returns reported pest or weed control at 70 g/ha for input Nc1c(F)c(-c2ccc3scnc3c2)nc(C(=O)O)c1Cl [Compound 6.02]
Output line: 95 to 100%

Input line: Which value of pest or weed control at 70 g/ha has been reported for COc1c(N)nc(-c2ccc(Cl)c3occc23)nc1C(=O)O [Compound 2.22] in the records?
Output line: 45 to 59%

Input line: Please report the recorded pest or weed control at 70 g/ha for C=Cc1c(C(=O)O)nc(-c2ccc3cc[nH]c3c2F)c(F)c1N [Compound 1.19] .
Output line: 95 to 100%

Input line: If you can, please state the reported pest or weed control at 70 g/ha value of COC(=O)c1nc(-c2ccc3cc[nH]c3c2F)c(F)c(N)c1Cl [Compound 1.15] .
Output line: 95 to 100%
